The measured values listed here are drawn from PubChem BioAssay.

Below: a set of entries, each annotated with reported nuclei count.
test summary: endothelial E-selectin expression blockers – imaging, HUVEC, immunofluorescence, MLSMR starter and 10KST1 sets, primary screen (AID 487);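 further: 100% = median nuclei count of all wells on the same plate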
condition summary: HUVEC TNFalpha-induced E-selectin immunofluorescence imaging, at 2 µM; measured here: cell number, toxicity
Where a SMILES comes first, the peptide text is derived from it.

{"columns": ["compound", "nuclei count / %"],
 "data": [
  ["CCCCCC1CC(CC(C)C(=O)Nc2nncs2)C(=O)O1 (stereo not drawn)", 85.5],
  ["COCCNC(=O)Cn1cc2c(n1)CCCCC2", 98.4],
  ["O=c1[nH]c(CN2CCN(Cc3ccccc3)CC2)nc2sc3c(c12)CCC3", 99.5],
  ["CCOc1ccc(NC(=O)c2ccccc2O)cc1", 96.2],
  ["Cc1c(C(=O)N2CCCC2)sc(NC(=O)c2cccs2)c1C#N", 130],
  ["COc1ccc(C(N)=O)cc1N", 118],
  ["O=C1c2ccccc2C(=O)N1C/C=C/c1ccccc1", 112],
  ["O=c1c2cc(N3CCOCC3)ccc2[nH]c(=S)n1CCCN1CCCCC1", 106],
  ["CC1(C)CC(CCNC(=O)c2ccco2)CC(C)(C)N1", 81.4],
  ["CC(C)n1nc(C(=O)Nc2nc3ccc(S(C)(=O)=O)cc3s2)c2ccccc2c1=O", 117],
  ["COC(=O)c1cn(NC(=O)C2CCCO2)c(=O)c2ccccc12 (stereo not drawn)", 89.7],
  ["CCCC(NC(=O)CNC(=O)C(C)(C)C)C(=O)O (stereo not drawn) (HELM PEPTIDE1{[CC(C)(C)C(=O)[*:2]].G.[CCCC(N[*:1])C(=O)O]}$$$$V2.0)", 97.4],
  ["COc1ccc(S(=O)(=O)N(CC(=O)N2CCN(c3ccccc3OC)CC2)c2ccccc2)cc1", 111],
  ["COc1cc(NC2=CC(=O)CC(C)(C)C2)cc(OC)c1", 103],
  ["COc1ccccc1OCCOc1ccccc1/C=N/n1cnnc1", 103],
  ["C=CCN(C(=O)CNC(=O)c1ccco1)C(C(=O)NC1CCCCC1)c1ccccc1F (stereo not drawn)", 101],
  ["O=C(c1ccc2c(c1)OCCO2)C1CCN(C(=O)c2ccc(F)cc2)CC1", 126],
  ["Cc1onc(-c2c(Cl)cccc2Cl)c1C(N)=O", 98.7],
  ["c1coc(CN2CN=C(Nc3nc4ccccc4s3)NC2)c1", 109],
  ["O=C(Cn1cc2c(n1)CCCCC2)N1CCc2ccccc2C1", 85.1],
  ["CC(=O)c1ccc(-n2nnnc2SCC(=O)N2CCc3ccccc3C2)cc1", 93.6],
  ["CC(Sc1nc(-c2ccccc2)cc(C(F)(F)F)n1)C(=O)N1CCC(C(N)=O)CC1 (stereo not drawn)", 126],
  ["Cc1ccc2cc(CCNC(=O)C(C)C)c(=O)[nH]c2c1C", 125]
]}

###

Below: a set of entries, each annotated with reported nuclei count.
test summary: endothelial E-selectin expression blockers – imaging, HUVEC, immunofluorescence, MLSMR starter and 10KST1 sets, primary screen (AID 487);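 further: 100% = median nuclei count of all wells on the same plate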
condition summary: HUVEC TNFalpha-induced E-selectin immunofluorescence imaging, at 2 µM; measured here: cell number, toxicity

{"columns": ["compound", "display unit", "nuclei count"],
 "data": [
  ["Cc1cc(N=Cc2cc(Br)ccc2O)no1", "%", 121],
  ["Cc1cccc(OCC(=O)N2CCN(C(=O)Cc3ccccc3)CC2)c1", "%", 111],
  ["Cc1ccc(C)c(N2CCN(C(=O)CCCn3c(=S)[nH]c4cc5c(cc4c3=O)OCO5)CC2)c1", "%", 114],
  ["O=C1CCNc2cc3ccccc3cc21", "%", 99.3],
  ["O=C(c1ccc2c(c1)c(=O)oc1ccccc12)N1CCCCC1", "%", 90.7],
  ["COc1ccc(Cc2nc(-c3ccc(NC(=O)c4cccnc4)cc3)no2)cc1", "%", 96.3],
  ["COC(=O)CS(=O)(=O)c1nnc([C@H](Cc2ccccc2)NC(=O)OC(C)(C)C)o1", "%", 89],
  ["COc1ccc(N2CCN(Cc3nc4c(c(=O)[nH]c(=O)n4C)n3CC(C)=O)CC2)cc1", "%", 119],
  ["Cc1cc(C)n(-c2nc3sc4c(c3c3nnc(SC(C)C)n23)CC(C)(C)OC4)n1", "%", 117],
  ["Cc1noc(C)c1CSc1nnc2n(-c3ccccc3)c(=O)c3ccccc3n12", "%", 89.5],
  ["CCCCSc1nnc([C@H](C)NC(=O)OC(C)(C)C)o1", "%", 112],
  ["CC1CCC2C(C1)c1sc(=O)[nH]c1SC2(C)C (stereo unspecified)", "%", 116],
  ["Cc1noc(C)c1S(=O)(=O)N1CCN(Cc2ccc3c(c2)OCO3)CC1", "%", 117],
  ["COc1ccccc1-n1c(=O)[nH]c2c(C(N)=O)nc(CC(C)C)nc21", "%", 117],
  ["CCCCOc1ccc(C2C3CN(C(=O)OCC)CC=C3C(C#N)=C(N)C2(C#N)C#N)cc1OC (stereo unspecified)", "%", 115],
  ["O=C(Nc1nnc(N2CCCCCC2)s1)c1cc(-c2ccc(Br)cc2)on1", "%", 120],
  ["Cc1nnc(NCCc2ccccc2)n(N)c1=O", "%", 121],
  ["Cc1nc2ccccn2c1/C(O)=C1\\C(=O)C(=O)N(CCCN(C)C)C1c1ccc(F)cc1 (stereo unspecified)", "%", 122],
  ["COC(=O)Cn1c(CN2CCN(c3ccccc3F)CC2)nc2c1c(=O)n(C)c(=O)n2C", "%", 87.6],
  ["CCC(CC)C(=O)NCCc1cc2ccc(C)cc2[nH]c1=O", "%", 111],
  ["CCCn1c(=NC(C)=O)c(C#N)cc2c(=O)n3cccc(C)c3nc21", "%", 131],
  ["Cc1ccc(-c2nn3c(C)nnc3s2)cc1N", "%", 114],
  ["O=C(Cn1c(-c2cncs2)nc2ccccc21)NC1CCCC1", "%", 109],
  ["N#CCC(=O)N1CCn2c1nc1ccccc12", "%", 101],
  ["CCCS(=O)(=O)N1CCN(C(=O)c2cccnc2)CC1", "%", 114],
  ["CCOC(=O)C1CCCN(CC(=O)NC2CC2)C1 (stereo unspecified)", "%", 101],
  ["COc1cccc(C(=O)OCn2nnc3ccccc3c2=O)c1", "%", 119],
  ["Cc1ccccc1-n1nnc2c(=O)oc3ccccc3c21", "%", 96.8],
  ["O=C(NC1=NCCS1)c1nc(-c2ccccc2)n(-c2ccccc2)n1", "%", 113],
  ["O=C1CCCC(O)=C1C=Nc1ccc2c(c1)oc1ccccc12", "%", 106],
  ["CCOc1ccc(C2C(C#N)=C(N)Oc3cc(C)n(CCN(C)C)c(=O)c32)cc1OCC (stereo unspecified)", "%", 93.1],
  ["O=C(Nn1cnnc1)c1cc2c(s1)CCCC2", "%", 112],
  ["CCc1cc2c(CN3CCN(CCO)CC3)cc(=O)oc2cc1O", "%", 60.8],
  ["CN(CC(=O)Nc1ccc2c(c1)OCCO2)S(=O)(=O)c1ccc(Br)s1", "%", 98.5],
  ["CCN1CCN(C(=O)C2CCN(C(=O)c3cc4sccc4n3CC)CC2)CC1", "%", 115],
  ["O=C(O)C1CC(=O)N(CCOc2ccccc2)C1 (stereo unspecified)", "%", 101],
  ["CC(=O)OC1c2ccccc2C(=O)N1Cc1ccccc1Cl (stereo unspecified)", "%", 106],
  ["CCCC(=O)N1CC(=O)Nc2ccc(C)cc2C1c1ccc(F)cc1 (stereo unspecified)", "%", 111],
  ["O=C1c2ccccc2C(=O)N1CCC(=O)N1CCc2ccccc21", "%", 109],
  ["COC(=O)c1ccsc1NC(=O)CN1C(=O)CCC1=O", "%", 100],
  ["Cc1ccc(-c2cc(C(=O)NCCN3CCOCC3)no2)cc1", "%", 101],
  ["COC(=O)c1[nH]c2ccc(F)cc2c1NS(=O)(=O)c1ccc(OC)cc1OC", "%", 152],
  ["CC(C)(C)SCCNC(=O)COc1ccc(Cl)cc1", "%", 147],
  ["O=C(c1ccco1)N1CCN(/C(=N/S(=O)(=O)c2cccs2)c2ccccc2Cl)CC1", "%", 95.1],
  ["CCOc1ccc(-c2cc(C(=O)N3CCN(c4ccccn4)CC3)c3ccccc3n2)cc1", "%", 111],
  ["COc1ccccc1CNC(=O)CCNC(=O)Cn1ccc2ccccc2c1=O", "%", 116]
]}
